target_desc: recombinant human 5-HT4 receptor (Homo sapiens)
procedure_summary: Determination of EC50 values for 5-HT4 receptor (CHO cells, pCRE-Luc reporter)
test_parameters: luciferase reporter, 4 hours incubation, read-out: 5-HT4 receptor agonistic binding in-vitro EC50
pEC50: −log10 of the molar value.
endpoint: pEC50

CC(C)n1cc2cccc(C(=O)NCC3(F)CCN(CC4CCOCC4)CC3)c2n1	8.30 to 8.96

With those in mind, consider the next molecule.
Lab book: pEC50 of CC(C)n1cc2cccc(C(=O)NCC3C4CN(CC(C)(C)O)CC34)c2n1 (centres unmarked) noted as 7.70 to 8.29

====

procedure_summary: Rodent pharmacokinetic study
Assay type: in vivo, Male wistar rats
test_parameters: male, Wistar, plasma; rat, 1 mg/kg intravenous (bolus)
AUC(0-t) values, listed per item
State the answer as a number, implicitly in ng·h/mL.

COCCCN1CC2C(CNC(=O)c3cccc4cn(C(C)C)nc34)C2C1.O=C(O)C(=O)O (stereo not shown)	397

Lab book: AUC(0-t) of "CCn1cc2cccc(C(=O)NCC3CCN(CC4CCOCC4)CC3)c2n1.O=C(O)/C=C/C(=O)O" noted as 145

Lab book: AUC(0-t) of "CC(C)n1cc2cccc(C(=O)NCC3CCN(CC4CCOCC4)CC3)c2n1" noted as 287

Lab book: AUC(0-t) of "CC(C)n1cc2cccc(C(=O)NCC3CCN(CC(C)(C)O)CC3)c2n1.O=C(O)C(O)C(O)C(=O)O" noted as 281

====

Cmax values, listed per item
procedure_summary: Rodent pharmacokinetic study
Assay type: in vivo, Male wistar rats
test_parameters: male, Wistar, plasma; rat, 3 mg/kg oral (gavage)
State the answer as a number, implicitly in ng/mL.

Some solved entries appear below for comparison.
CC(C)n1cc2cccc(C(=O)NCC3CCN(CC4CCOCC4)CC3)c2n1	107
CC(C)n1cc2cccc(C(=O)NCC3CCN(CC(C)(C)O)CC3)c2n1.O=C(O)C(O)C(O)C(=O)O	110
CCn1cc2cccc(C(=O)NCC3CCN(CC4CCOCC4)CC3)c2n1.O=C(O)/C=C/C(=O)O	223

With those in mind, consider the next compound.
Lab book: Cmax of COCCCN1CC2C(CNC(=O)c3cccc4cn(C(C)C)nc34)C2C1.O=C(O)C(=O)O (stereo not shown) noted as 467

====

procedure_summary: Rodent pharmacokinetic study
Assay type: in vivo, Male wistar rats
test_parameters: male, Wistar, plasma; rat, 3 mg/kg oral (gavage)
endpoint: Tmax (min)
State the answer as a number, implicitly in min.

CC(C)n1cc2cccc(C(=O)NCC3CCN(CC(C)(C)O)CC3)c2n1.O=C(O)C(O)C(O)C(=O)O	30
COCCCN1CC2C(CNC(=O)c3cccc4cn(C(C)C)nc34)C2C1.O=C(O)C(=O)O (stereo not shown)	19.8

Lab book: Tmax of "CC(C)n1cc2cccc(C(=O)NCC3CCN(CC4CCOCC4)CC3)c2n1" noted as 25.2

Lab book: Tmax of "CCn1cc2cccc(C(=O)NCC3CCN(CC4CCOCC4)CC3)c2n1.O=C(O)/C=C/C(=O)O" noted as 19.8

====

procedure_summary: Rodent brain penetration study
Format: in vivo, Male Wistar rats
test_parameters: male, Wistar, brain and plasma; rat, 3 mg/kg oral (gavage); read-out: Single dose Brain Penetration (Cb/Cp)
Kp values, listed per item
Kindly provide the number alone.

Some solved entries appear below for comparison.
CCn1cc2cccc(C(=O)NCC3CCN(CC4CCOCC4)CC3)c2n1.O=C(O)/C=C/C(=O)O	1
COCCCN1CC2C(CNC(=O)c3cccc4cn(C(C)C)nc34)C2C1.O=C(O)C(=O)O (stereo not shown) [Example 3, oxalate]	0.96

Lab book: Kp of "CC(C)n1cc2cccc(C(=O)NCC3CCN(CC(C)(C)O)CC3)c2n1.O=C(O)C(O)C(O)C(=O)O" noted as 0.52

Lab book: Kp of "CC(C)n1cc2cccc(C(=O)NCC3CCN(CC4CCOCC4)CC3)c2n1" noted as 0.98

====

target_desc: recombinant human 5-HT4 receptor (Homo sapiens, UniProt Q13639)
Sequence (Q13639 whole entry): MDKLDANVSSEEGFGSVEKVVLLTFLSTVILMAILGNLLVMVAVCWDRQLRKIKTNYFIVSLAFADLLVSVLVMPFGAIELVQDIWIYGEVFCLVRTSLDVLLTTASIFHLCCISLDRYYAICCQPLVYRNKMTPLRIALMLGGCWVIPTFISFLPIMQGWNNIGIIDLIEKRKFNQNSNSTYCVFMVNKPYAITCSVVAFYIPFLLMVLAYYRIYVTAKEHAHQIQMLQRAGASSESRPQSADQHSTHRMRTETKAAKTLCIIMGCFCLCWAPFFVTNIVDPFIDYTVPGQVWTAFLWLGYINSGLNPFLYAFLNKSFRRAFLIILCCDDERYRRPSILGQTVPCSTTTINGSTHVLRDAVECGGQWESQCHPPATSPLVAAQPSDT
procedure_summary: Determination of EC50 values for 5-HT4 receptor (CHO cells, pCRE-Luc reporter)
test_parameters: luciferase reporter, 4 hours incubation, read-out: 5-HT4 receptor agonistic binding in-vitro EC50
pEC50: −log10 of the molar value. Where a name gives a salt, the structure may show the parent alone.
pEC50 values, listed per item

Some solved entries appear below for comparison.
CC(C)n1cc2cccc(C(=O)NCC3CCN(CCC(C)(C)O)CC3)c2n1	≥ 9.00
CC(C)N1CCC(NC(=O)c2cccc3cn(C(C)C)nc23)CC1 [Example 19, fumarate]	7.30 to 7.70
CC(C)n1cc2cccc(C(=O)NC3CCN(CC4CC4)CC3)c2n1 [Example 20, fumarate]	7.70 to 8.29

With those in mind, consider the next compound.
Lab book: pEC50 of CC(C)n1cc2cccc(C(=O)NCC3CCN(CC4CCOC4)CC3)c2n1 (stereo not shown) noted as ≥ 9.00

====

pEC50 values, listed per item
target_desc: recombinant human 5-HT4 receptor (Homo sapiens, UniProt Q13639)
procedure_summary: Determination of EC50 values for 5-HT4 receptor (CHO cells, pCRE-Luc reporter)
test_parameters: luciferase reporter, 4 hours incubation, read-out: 5-HT4 receptor agonistic binding in-vitro EC50
pEC50: −log10 of the molar value. Structures can show the parent of a compound that is named as a salt.

Some solved entries appear below for comparison.
CC(C)n1cc2cccc(-c3nnc(C4CCN(C5CCOCC5)CC4)o3)c2n1 [Example 39, fumarate]	8.30 to 8.96
COCCCN1CCC(CNC(=O)c2cccc3cn(C(C)C)nc23)CC1 [Example 24, fumarate]	≥ 9.00
COC(C)(C)CN1CCC(CNC(=O)c2cccc3cn(C(C)C)nc23)CC1 [Example 33]	≥ 9.00
CC(C)n1cc2cccc(C(=O)NCC3(O)CCN(CC4CCOCC4)CC3)c2n1 [Example 26]	8.30 to 8.96

# pEC50 measured on recombinant human 5-HT4 receptor (Homo sapiens, UniProt Q13639) for item COCCCN1CC2C(CNC(=O)c3cccc4cn(C(C)C)nc34)C2C1.O=C(O)C(=O)O (stereo not drawn) [Example 3, oxalate] = 8.30 to 8.96

# pEC50 measured on recombinant human 5-HT4 receptor (Homo sapiens, UniProt Q13639) for item CC(C)N1CC2C(CNC(=O)c3cccc4cn(C(C)C)nc34)C2C1 (stereo not drawn) [Example 16, fumarate] = 8.30 to 8.96

# pEC50 measured on recombinant human 5-HT4 receptor (Homo sapiens, UniProt Q13639) for item CCn1cc2cccc(C(=O)NCC3CCN(CC4CCOCC4)CC3)c2n1.O=C(O)/C=C/C(=O)O [Example 2] = ≥ 9.00

====

target_desc: recombinant human 5-HT4 receptor (Homo sapiens, UniProt Q13639)
procedure_summary: Determination of EC50 values for 5-HT4 receptor (CHO cells, pCRE-Luc reporter)
test_parameters: luciferase reporter, 4 hours incubation, read-out: 5-HT4 receptor agonistic binding in-vitro EC50
pEC50: −log10 of the molar value. Where a name gives a salt, the structure may show the parent alone.
pEC50 values, listed per item

# pEC50 measured on recombinant human 5-HT4 receptor (Homo sapiens, UniProt Q13639) for item CCn1cc2cccc(C(=O)NCC3C4CN(C5CCOCC5)CC34)c2n1 (centres unmarked) [Example 18, oxalate] = 7.70 to 8.29

# pEC50 measured on recombinant human 5-HT4 receptor (Homo sapiens, UniProt Q13639) for item "CC(C)n1cc2cccc(C(=O)NCC3(F)CCN(CC(C)(C)O)CC3)c2n1" = 7.70 to 8.29

# pEC50 measured on recombinant human 5-HT4 receptor (Homo sapiens, UniProt Q13639) for item CC(C)n1cc2cccc(C(=O)NCC3CCN(CC4(O)CCOCC4)CC3)c2n1 [Example 17, fumarate] = ≥ 9.00

# pEC50 measured on recombinant human 5-HT4 receptor (Homo sapiens, UniProt Q13639) for item CC(C)n1cc2cccc(C(=O)NC3CCN(CC4CCC4)CC3)c2n1 [Example 21, fumarate] = 7.70 to 8.29

# pEC50 measured on recombinant human 5-HT4 receptor (Homo sapiens, UniProt Q13639) for item CC(C)n1cc2cccc(C(=O)NCC3CN(CC4CCOCC4)CCO3)c2n1 (centres unmarked) = 7.70 to 8.29

====

target_desc: recombinant human 5-HT4 receptor (Homo sapiens)
procedure_summary: Determination of EC50 values for 5-HT4 receptor (CHO cells, pCRE-Luc reporter)
test_parameters: luciferase reporter, 4 hours incubation, read-out: 5-HT4 receptor agonistic binding in-vitro EC50
pEC50: −log10 of the molar value. Where a name gives a salt, the structure may show the parent alone.
pEC50 values, listed per item

Some solved entries appear below for comparison.
COCCCN1CCC(O)(CNC(=O)c2cccc3cn(C(C)C)nc23)CC1 [Example 28, fumarate]	8.30 to 8.96
CCn1cc2cccc(C(=O)NCC3C4CN(CCCOC)CC34)c2n1 (stereo not drawn) [Example 5, oxalate]	8.30 to 8.96

With those in mind, consider the next compound.
Lab book: pEC50 of "CC(C)n1cc2cccc(C(=O)NCC3CCN(CC4CCOCC4)CC3)c2n1" noted as ≥ 9.00
